- target_system: mouse Estrogen Receptor alpha (Era), Esr1 (gene 13982) (UniProt P19785)
- Sequence (P19785 whole entry, looked up): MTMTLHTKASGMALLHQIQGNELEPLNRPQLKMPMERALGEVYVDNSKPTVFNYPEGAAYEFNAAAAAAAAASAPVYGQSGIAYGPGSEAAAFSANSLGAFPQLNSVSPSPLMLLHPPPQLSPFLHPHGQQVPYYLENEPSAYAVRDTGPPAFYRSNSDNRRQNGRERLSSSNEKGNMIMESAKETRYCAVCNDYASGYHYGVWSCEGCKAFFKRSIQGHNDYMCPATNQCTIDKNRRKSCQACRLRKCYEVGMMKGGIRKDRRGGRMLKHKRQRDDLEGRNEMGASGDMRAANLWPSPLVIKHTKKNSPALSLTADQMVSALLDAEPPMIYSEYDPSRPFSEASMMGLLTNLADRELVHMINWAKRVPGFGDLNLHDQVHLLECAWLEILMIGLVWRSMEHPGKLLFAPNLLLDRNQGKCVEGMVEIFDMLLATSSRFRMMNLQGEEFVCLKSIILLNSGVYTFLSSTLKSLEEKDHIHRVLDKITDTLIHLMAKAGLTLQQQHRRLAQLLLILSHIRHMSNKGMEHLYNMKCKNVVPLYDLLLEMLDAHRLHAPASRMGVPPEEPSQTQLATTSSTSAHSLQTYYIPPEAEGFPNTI
- procedure_details: NVS_NR_mERa: NovaScreen (NVS) Nuclear Receptor Binding Assay for mouse Estrogen Receptor alpha (Era) (AID 2283378);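 further: hit means loss of bound radioligand signal relative to DMSO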
- Procedure: NVS_NR_mERa is a biochemical, single-readout assay that uses extracted gene-proteins in a cell-free assay. Measurements were taken 18 hours after chemical dosing in a 96-well plate.NVS_NR_mERa is one of one assay component(s) measured or calculated from the NVS_NR_mERa assay. […] This assay endpoint, NVS_NR_mERa, was analyzed in the positive analysis fitting direction relative to DMSO as the negative control and baseline of activity. […]
Results filed as inconclusive are left out. Calls of active or inactive are those of the source. How the source made its calls: active means hit-call score of the fitted dose curve at least 0.9, where 1 is the maximum; inconclusive means response in the unintended direction; inactive means score below 0.9.
Return exactly one item of true (active), false (inactive)

Reference set (3 entries):
[[record]]
compound = "COc1ccc(C(c2ccc(OC)cc2)C(Cl)(Cl)Cl)cc1"
target_system = "mouse Estrogen Receptor alpha (Era), Esr1 (gene 13982) (UniProt P19785)"
discrete_label = "true"

[[record]]
compound = "CCCCNC(=O)OCC#CI"
target_system = "mouse Estrogen Receptor alpha (Era), Esr1 (gene 13982) (UniProt P19785)"
discrete_label = "false"

[[record]]
compound = "COC(=O)c1ccccc1C(=O)OC"
target_system = "mouse Estrogen Receptor alpha (Era), Esr1 (gene 13982) (UniProt P19785)"
discrete_label = "false"


Can you look up the reported call for C=CCC1=C(C)C(OC(=O)C2C(C=C(C)C)C2(C)C)CC1=O (centres undefined) for me?
false

###

- procedure_details: BSK_CASM3C_Proliferation: Cell Proliferation Assessment in the BioMAP Diversity Plus: CASM3C Assay (AID 2283047);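 further: sulforhodamine B total protein stain as relative cell number at 560 nm; sub-confluent cells exposed 48 h before staining; fitted both ways against DMSO so gain or loss of cell number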
- study_conditions: primary human coronary artery smooth muscle cells
Calls of active or inactive are those of the source. The calls were made as follows: active = hit-call score of the fitted dose curve at least 0.9, where 1 is the maximum; inactive = score below 0.9.
property: outcome

[[record]]
compound = "N#Cc1cc(Br)c(O)c(Br)c1"
property = "outcome"
value_observed = "inactive"

[[record]]
compound = "COC(=O)C(C)Oc1ccc(Oc2ccc(Cl)cc2Cl)cc1 (stereo not given)"
property = "outcome"
value_observed = "inactive"

[[record]]
compound = "CON(C)C(=O)Nc1ccc(Cl)c(Cl)c1"
property = "outcome"
value_observed = "inactive"

[[record]]
compound = "Cc1ccc(-c2c(Cl)nc(C#N)n2S(=O)(=O)N(C)C)cc1"
property = "outcome"
value_observed = "inactive"


Let us move to another entry and its outcome.
The value of outcome measured for the compound `CCOP(=S)(OCC)SCn1c(=O)oc2cc(Cl)ccc21` turned out to be inactive

###

- target_system: Cellular tumor antigen p53 (Homo sapiens)
- procedure_details: TOX21_p53_BLA_p5_ratio: Tox21 HCT-116 p53 Agonism Beta-lactamase Assay, Ratio, Phase 5 (AID 2283599)
Records with an inconclusive call do not appear. Activity calls are given as the source filed them. How the source made its calls: active means hit-call score of the fitted dose curve at least 0.9, where 1 is the maximum; inconclusive means response in the unintended direction; inactive means score below 0.9.
Return exactly one item of active, inactive

Reference set (2 entries):
[[record]]
compound = "COP(N)(=O)SC (stereo not given)"
discrete_label = "inactive"

[[record]]
compound = "Cc1ccc(-c2c(Cl)nc(C#N)n2S(=O)(=O)N(C)C)cc1"
discrete_label = "active"


Can you look up the reported call for COC(=O)C(C)Oc1ccc(Oc2ccc(Cl)cc2Cl)cc1 (stereo not given) for me?
inactive

Can you look up the reported call for `COC(=O)N(OC)c1ccccc1COc1ccn(-c2ccc(Cl)cc2)n1` for me?
active

Can you look up the reported call for `CS/C(C)=N/OC(=O)N(C)SN(C)C(=O)O/N=C(\C)SC` for me?
inactive

Can you look up the reported call for C=CC1(C)OC(=O)N(c2cc(Cl)cc(Cl)c2)C1=O (stereo not given) for me?
inactive

Can you look up the reported call for CC(C)C1(C)N=C(c2nc3ccccc3cc2C(=O)O)NC1=O (stereo not given) for me?
inactive

Can you look up the reported call for CCCCC(CC)COC(=O)c1ccccc1C(=O)OCC(CC)CCCC (stereo not given) for me?
inactive

Can you look up the reported call for `C=CCC1=C(C)[C@@H](OC(=O)[C@@H]2[C@@H](C=C(C)C)C2(C)C)CC1=O` for me?
inactive

Can you look up the reported call for `O=C(O)COc1nc(Cl)c(Cl)cc1Cl` for me?
inactive
